metric: melting point

molecule	melting point
CC(C)C[C@H]1CNC[C@H]1C(=O)O (relative stereo)	260 to 262 °C
O=C(NC1CCC2(CC1)CSC1=C(O2)c2ccccc2C(=O)C1=O)Oc1cccc(C(F)(F)F)c1 (stereo not given)	198 to 199 °C
CC(C)c1ccc(C(O)C(=O)O)cc1 (stereo not given)	156 to 157 °C

Provide only the value of recorded melting point for CC1CC2(CC(C)(C)C1=O)OC(C)C(C)O2 (stereo not given)
71 to 72 °C

Fill in melting point for record COc1ccc(Cn2c(=O)c3c(c4ccccc42)OC(C)(C)[C@@H](Br)[C@@H]3O)cc1 (relative stereo)
146 to 147 °C

----------
metric: melting point

Name the recorded melting point of the compound listed here: "CCCCCOc1ccc(Cn2c(C)nc(Cl)c2COC(=O)NS(=O)(=O)c2ccc(C)cc2)c(Cl)c1"
109 to 111 °C

Please list melting point recorded for the compound "Nc1ncc(C#Cc2ccc(Cl)cc2)c(N2CCOCC2)n1"
193 to 194 °C

Dear colleague, please send me the reported melting point for "CN(CCN(C)c1ccc(OS(=O)(=O)C(F)(F)F)nc1)c1ccc(OS(=O)(=O)C(F)(F)F)nc1" when you can.
146 to 148 °C

Give the value of melting point reported for the following: "CN1C(=O)CC[C@]2(C)c3ccc(-c4nc5ccccc5s4)cc3CC[C@@H]12"
207 to 212 °C

Please list melting point recorded for the compound CC12C=CC(=O)C=C1C(Br)CC1C2CCC2(C)C(=O)CCC12 (stereo unspecified)
188 to 190 °C

Please give measured melting point of the following entry: "NC(=O)c1[nH]nc([C@@H]2O[C@H](CO)[C@@H](O)[C@H]2O)c1O"
112 to 115 °C

----------
metric: melting point

Example entries and their recorded answers appear below.
compound	recorded_value
CC(SC1COC(c2cccc(C(=O)Nc3ccc(C#N)cc3)c2)OC1)C(O)(Cn1cncn1)c1ccc(F)cc1F (stereo not drawn)	105 °C
N#Cc1cccc(NC(=O)c2ccc(-n3nc(C(F)(F)F)cc3C(F)(F)F)cc2)c1	195 to 196 °C
Cn1nc(-c2cc(CO)c(Cl)cc2F)c(Cl)c1C(F)(F)F	90 °C
COc1cccc(COc2ccc(N)nn2)c1OC	103 to 106 °C
CCCCn1ccc(C=O)cc1=O	36 to 40 °C

Supply recorded melting point for O=C(NCCOc1ccc(-c2noc(=O)[nH]2)cc1)C1Cc2ccccc2N1S(=O)(=O)c1ccc(-c2cccc(C(F)(F)F)c2)cc1 (stereo not drawn) here.
123 to 130 °C

Write down melting point measured for item "CC(C)COC(=O)Oc1c(S(N)(=O)=O)sc2ccccc12"
129 to 130 °C

Note down melting point recorded for "Cc1cc(C)cc(Oc2ccc(-n3ccnc3)nn2)c1"
170 °C

Give melting point for "CCOC(=S)c1[nH]c(C)nc1C(C)(C)O"
128 to 129 °C

State its melting point: "CS(=O)(=O)Nc1cc2occ(C(=O)Nc3nnn[nH]3)c(=O)c2cc1Oc1ccccc1"
> 250 °C

Note down melting point recorded for "O=P(O)(O)OP(=O)(O)O"
212 °C

Answer with the recorded melting point for the compound listed here: "CC(=O)O[C@H]1c2cc(F)ccc2Cc2ccccc2[C@H]1C[C@@H]1COC(C)(C)O1"
147 to 149 °C

Consider the compound "Cn1nc(-c2ccc(Br)cc2)c2ccccc2c1=O" and give its recorded melting point.
168 to 170 °C

----------
metric: melting point

compound	recorded_value
O=C=NC1(c2ccccc2)CCC2(CC1)OCCO2	38 to 41 °C

Supply recorded melting point for "CC(C)(C)OC(=O)N1CCN(Cc2ccc([N+](=O)[O-])cc2)CC1" here.
99 to 100 °C

Complete the entry with melting point for "CN1CCN(c2nnc3c4ccccc4c(Cl)cn23)CC1"
150 to 153 °C

Output measured melting point for this item: "COC(=O)c1ccc(Cl)cc1NC(=O)CSc1cccc(OC)c1"
72 to 73 °C

Specify reported melting point for the compound shown: CC(C)(NC(=O)C(O)C(N)Cc1ccc(S(C)(=O)=O)cc1)C(=O)O (stereo not given)
220 to 222 °C

----------
Reported melting point by item:

Worked examples follow.
molecule	melting point
COc1cc(C(=O)N2Cc3ccc(C(=O)NCc4ccc(C)cc4C)n3Cc3ccccc32)ccc1-c1ccccc1C	161 to 162 °C
CN(C(=O)c1nnc2ccccc2c1O)c1ccccn1	237 to 239 °C
CC(CCC(=O)O)C(=O)N1c2ccccc2CCC1C(=O)O (stereo not given)	117 to 119 °C
O=C(O)c1cccc(CNc2n[nH]c3ncnc(Nc4cccc(Cl)c4)c23)c1	294 to 296 °C
C[C@H](C(=O)O)n1nc(O)c2[nH]c3cc(Cl)ccc3c(=O)c2c1=O	> 275 °C
COCC1CC(Cn2ccnc2)(c2ccc(Cl)cc2)N(C)O1 (stereo not given)	123 to 126 °C
COc1cc(-c2cc(C(F)(F)F)nn2-c2ccc(S(N)(=O)=O)c(F)c2)ccc1-c1cscn1	97 to 99 °C
CC(C)(C)c1ccc(S(=O)(=O)n2c(CCC(=O)O)cc3cc(Cl)ccc32)cc1	169 to 171 °C
O=c1c2cnc(Cl)cc2[nH]c2ccnn12	> 300 °C
O=CC(CC(=O)O)NC(=O)[C@@H]1CCCN1C(=O)c1nc(CCc2ccccc2)c[nH]1 (stereo not given in full)	102 to 104 °C

Report melting point for "Cc1cccc2c(Nc3cc(CO)cc(NC(=O)Oc4ccc(N(CCCl)CCCl)cc4)c3)c3ccccc3nc12"
229 to 231 °C

Supply measured melting point of "COc1c(C)c2c(c(OS(=O)(=O)c3ccc(C)cc3)c1CC=C(C)C=O)C(=O)OC2" in your reply.
168 to 173 °C

Supply recorded melting point for "CC(=O)c1cccc(-c2ccc3nc(-c4ccc(Cl)cc4)cn3c2)c1" here.
173 to 175 °C

Supply melting point value. Item: CC(Cc1ccc(OCC(=O)O)c(F)c1)NS(=O)(=O)c1ccccc1 (stereo not given)
148 to 150 °C

Tell us which melting point value is on record for O=C1CCC(N2Cc3c(CNC(=S)NC4CCCCC4)cccc3C2=O)C(=O)N1 (stereo not given)
> 260 °C

----------
Listing: melting point of selected compounds

// below: answered compounds
compound	recorded_value
O=C(CC1CCCC1)c1ccc(Cn2ccc3ncnc-3c2)cc1	153 to 156 °C
O=C(O)CS(=O)(=O)Nc1c(F)cc(F)cc1F	126 to 127 °C
C[C@@H](c1ccccc1)n1c(O)nc2c(N)nc3cccnc3c21	241 to 243 °C

Next compound, melting point to be filled in.
Item "Cn1nc(N)c(C#N)c1N" : provide melting point
194 °C

----------
metric: melting point

molecule	melting point
CCC(c1ccc(C(=O)OC)cc1)C(C)NCC(O)c1ccc(O)c(CO)c1 (stereo not drawn)	73 to 75 °C
COc1ccc(-c2nc(Sc3ccc(Cl)cc3)cc(N3CCN(C)CC3)n2)cc1	143 to 145 °C

Would you kindly look at the next entry?
Check the records and state melting point for "CC(C)(C)OC(=O)N1C[C@@H](S)C[C@@H]1CN(C(=O)OC(C)(C)C)S(N)(=O)=O"
90 to 91.5 °C

----------
metric: melting point

compound	recorded_value
COC(=O)CCC(=NO)c1ccccc1	76 to 77 °C
CC(=O)NCc1ccc2ccn(C3CCN(CCc4ccc(Cl)cc4)CC3)c2c1	148 to 149 °C
O=[N+]([O-])c1ccc2c(Nc3ccncc3)noc2c1	296 to 300 °C
CC(=O)Oc1cccc2sc(-c3ccc(C(=O)O)cc3)nc12	229 to 233 °C
O=C(N=c1sc2cc(OC(F)(F)F)ccc2n1CCN1CCN(c2ccccn2)CC1)C(F)(F)F	132 °C

Determine from records and report melting point for Cn1ncc(C(=O)c2ccc(S(C)(=O)=O)c3c2CC2CON=C32)c1OC(=O)c1ccccc1 (stereo not given)
86 to 93 °C

For "Cn1cnc(COc2n[nH]c(C=O)c2-c2ccccc2)n1" , write its melting point.
202 to 205 °C

----------
A collection of molecules and their measured melting point

A selection of reference data follows.
molecule	melting point
COc1ccccc1Cc1cnc(NCCSCc2nc[nH]c2C)[nH]c1=O	163 to 167 °C
COC(=O)C(CO)NC(=O)c1cc2cc(Cl)ccc2[nH]1 (stereo not given)	153 to 155 °C
CC(C)N1CC(CCl)C(c2ccccc2)(c2ccccc2)C1=O (stereo not given)	114 to 116 °C
CCOC(=O)C(C(=O)OCC)[C@H](C[N+](=O)[O-])c1ccccc1	45 to 47 °C

// Input: O=C(NC(Cc1c[nH]c2ccccc12)C(=O)C(=O)CCl)OC1C2CC3CC(C2)CC1C3 (stereo not given) . Output its melting point only.
56 to 63 °C

----------
metric: melting point

compound	melting point
Cc1nc(-c2ccc(C(F)(F)F)cc2)sc1C(=O)N[C@H](C)[C@](O)(Cn1cncn1)c1ccc(F)cc1F	79 to 82 °C

Look up and state reported melting point for "COc1ccc(CNc2ccc(C(=O)O)cc2)cc1"
208 to 210 °C

State its melting point for this compound: "CC(C)(OCc1cc2nc(C(F)(F)F)ccc2n1S(=O)(=O)c1ccccc1)C(=O)O"
122 to 125 °C

Please look at this compound and report its melting point: "CC(=O)CCN(CCNC(=O)OC(C)(C)C)c1nc2cc(Cl)ccc2o1"
145 to 148 °C

Given the compound "CNC(=O)N(C)c1ccc(Cl)c(COc2cccn3c(Br)c(C)nc23)c1Cl" , write its reported melting point.
192 to 193 °C

Please give the documented melting point of "O=C(Nc1nnn[nH]1)c1cccc([N+](=O)[O-])c1"
276 °C

Consider the compound "CN1CCCN(C(=O)Nc2ccccc2Cc2ncc[nH]2)CC1" and give its recorded melting point.
139 to 143 °C

Determine its reported melting point: "N#CSc1nc(C(F)(F)F)nc2ccccc12"
134 to 136 °C
